For each entry below, report its solubility change mitosis (log2) value.
- System: HeLa Kyoto
- procedure_details: solubility change mitosis vs G1/S (difference of NP-40 vs SDS log2 ratios) (log2 ratio difference); higher = more soluble in mitosis
Enter a number only.

Asked: Given HNRNPU , state its recorded solubility change mitosis (log2).
Given back: 0.232

Asked: Another: MGVQPPNFSWVLPGRLAGLALPRLPAHYQFLLDLGVRHLVSLTERGPPHSDSCPGLTLHRLRIPDFCPPAPDQIDRFVQIVDEANARGEAVGVHCALGFGRTGTMLACYLVKERGLAAGDAIAEIRRLRPGSIETYEQEKAVFQFYQRTK [DUSP23]
Given back: -0.112

Asked: Another: MRFMTLLFLTALAGALVCAYDPEAASAPGSGNPCHEASAAQKENAGEDPGLARQAPKPRKQRSSLLEKGLDGAKKAVGGLGKLGKDAVEDLESVGKGAVHDVKDVLDSVL [DCD]
Given back: 1.24

Asked: Another: MSSGIHVALVTGGNKGIGLAIVRDLCRLFSGDVVLTARDVTRGQAAVQQLQAEGLSPRFHQLDIDDLQSIRALRDFLRKEYGGLDVLVNNAGIAFKVADPTPFHIQAEVTMKTNFFGTRDVCTELLPLIKPQGRVVNVSSIMSVRALKSCSPELQQKFRSETITEEELVGLMNKFVEDTKKGVHQKEGWPSSAYGVTKIGVTVLSRIHARKLSEQRKGDKILLNACCPGWVRTDMAGPKATKSPEEGAETPVYLALLPPDAEGPHGQFVSEKRVEQW [CBR1]
Given back: -0.0843

Asked: Another: MGARASGGPLARAGLLLLLLLLLLLGLLAPGAQGARGRGGAEKNSYRRTVNTFSQSVSSLFGEDNVRAAQKFLARLTERFVLGVDMFVETLWKVWTELLDVLGLDVSNLSQYFSPASVSSSPARALLLVGVVLLAYWFLSLTLGFTFSVLHVVFGRFFWIVRVVLFSMSCVYILHKYEGEPENAVLPLCFVVAVYFMTGPMGFYWRSSPSGPSNPSNPSVEEKLEHLEKQVRLLNIRLNRVLESLDRSKDK [BRI3BP]
Given back: 0.0237

----------
For each entry below, report its solubility change mitosis (log2) value.
- Tested on: HeLa Kyoto
- procedure_details: solubility change mitosis vs G1/S (difference of NP-40 vs SDS log2 ratios) (log2 ratio difference); higher = more soluble in mitosis

Asked: Given MAAAAEERMAEEGGGGQGDGGSSLASGSTQRQPPPPAPQHPQPGSQALPAPALAPDQLPQNNTLVALPIVAIENILSFMSYDEISQLRLVCKRMDLVCQRMLNQGFLKVERYHNLCQKQVKAQLPRRESERRNHSLARHADILAAVETRLSLLNMTFMKYVDSNLCCFIPGKVIDEIYRVLRYVNSTRAPQRAHEVLQELRDISSMAMEYFDEKIVPILKRKLPGSDVSGRLMGSPPVPGPSAALTTMQLFSKQNPSRQEVTKLQQQVKTNGAGVTVLRREISELRTKVQEQQKQLQDQDQKLLEQTQIIGEQNARLAELERKLREVMESAVGNSSGSGQNEESPRKRKKATEAIDSLRKSKRLRNRK [FBXO28] , state its recorded solubility change mitosis (log2).
Given back: 0.262

Asked: Another: MSDLLLLGLIGGLTLLLLLTLLAFAGYSGLLAGVEVSAGSPPIRNVTVAYKFHMGLYGETGRLFTESCSISPKLRSIAVYYDNPHMVPPDKCRCAVGSILSEGEESPSPELIDLYQKFGFKVFSFPAPSHVVTATFPYTTILSIWLATRRVHPALDTYIKERKLCAYPRLEIYQEDQIHFMCPLARQGDFYVPEMKETEWKWRGLVEAIDTQVDGTGADTMSDTSSVSLEVSPGSRETSAATLSPGASSRGWDDGDTRSEHSYSESGASGSSFEELDLEGEGPLGESRLDPGTEPLGTTKWLWEPTAPEKGKE [TEX264]
Given back: -0.257

Asked: Another: MFRFMRDVEPEDPMFLMDPFAIHRQHMSRMLSGGFGYSPFLSITDGNMPGTRPASRRMQQAGAVSPFGMLGMSGGFMDMFGMMNDMIGNMEHMTAGGNCQTFSSSTVISYSNTGDGAPKVYQETSEMRSAPGGIRETRRTVRDSDSGLEQMSIGHHIRDRAHILQRSRNHRTGDQEERQDYINLDESEAAAFDDEWRRETSRFRQQRPLEFRRLESSGAGGRRAEGPPRLAIQGPEDSPSRQSRRYDW [MLF2]
Given back: -0.0421

Asked: Another: MFTSTGSSGLYKAPLSKSLLLVPSALSLLLALLLPHCQKLFVYDLHAVKNDFQIWRLICGRIICLDLKDTFCSSLLIYNFRIFERRYGSRKFASFLLGSWVLSALFDFLLIEAMQYFFGITAASNLPSGFLAPVFALFVPFYCSIPRVQVAQILGPLSITNKTLIYILGLQLFTSGSYIWIVAISGLMSGLCYDSKMFQVHQVLCIPSWMAKFFSWTLEPIFSSSEPTSEARIGMGATLDIQRQQRMELLDRQLMFSQFAQGRRQRQQQGGMINWNRLFPPLRQRQNVNYQGGRQSEPAAPPLEVSEEQVARLMEMGFSRGDALEALRASNNDLNVATNFLLQH [UBAC2]
Given back: -0.209

Asked: Another: MSRRYDSRTTIFSPEGRLYQVEYAMEAIGHAGTCLGILANDGVLLAAERRNIHKLLDEVFFSEKIYKLNEDMACSVAGITSDANVLTNELRLIAQRYLLQYQEPIPCEQLVTALCDIKQAYTQFGGKRPFGVSLLYIGWDKHYGFQLYQSDPSGNYGGWKATCIGNNSAAAVSMLKQDYKEGEMTLKSALALAIKVLNKTMDVSKLSAEKVEIATLTRENGKTVIRVLKQKEVEQLIKKHEEEEAKAEREKKEKEQKEKDK [PSMA4]
Given back: -0.0614

Asked: Another: MAASSSGEKEKERLGGGLGVAGGNSTRERLLSALEDLEVLSRELIEMLAISRNQKLLQAGEENQVLELLIHRDGEFQELMKLALNQGKIHHEMQVLEKEVEKRDSDIQQLQKQLKEAEQILATAVYQAKEKLKSIEKARKGAISSEEIIKYAHRISASNAVCAPLTWVPGDPRRPYPTDLEMRSGLLGQMNNPSTNGVNGHLPGDALAAGRLPDVLAPQYPWQSNDMSMNMLPPNHSSDFLLEPPGHNKENEDDVEIMSTDSSSSSSESD [MED4]
Given back: -0.0345

Asked: Another: MEGCVSNLMVCNLAYSGKLEELKESILADKSLATRTDQDSRTALHWACSAGHTEIVEFLLQLGVPVNDKDDAGWSPLHIAASAGRDEIVKALLGKGAQVNAVNQNGCTPLHYAASKNRHEIAVMLLEGGANPDAKDHYEATAMHRAAAKGNLKMIHILLYYKASTNIQDTEGNTPLHLACDEERVEEAKLLVSQGASIYIENKEEKTPLQVAKGGLGLILKRMVEG [PSMD10]
Given back: 0.136

Asked: Another: MEKLYSENEGMASNQGKMENEEQPQDERKPEVTCTLEDKKLENEGKTENKGKTGDEEMLKDKGKPESEGEAKEGKSEREGESEMEGGSEREGKPEIEGKPESEGEPGSETRAAGKRPAEDDVPRKAKRKTNKGLAHYLKEYKEAIHDMNFSNEDMIREFDNMAKVQDEKRKSKQKLGAFLWMQRNLQDPFYPRGPREFRGGCRAPRRDIEDIPYV [TCEAL4]
Given back: 0.452

Asked: Another: MPEESSPRRTPQSIPYQDLPHLVNADGQYLFCRYWKPTGTPKALIFVSHGAGEHSGRYEELARMLMGLDLLVFAHDHVGHGQSEGERMVVSDFHVFVRDVLQHVDSMQKDYPGLPVFLLGHSMGGAIAILTAAERPGHFAGMVLISPLVLANPESATTFKVLAAKVLNLVLPNLSLGPIDSSVLSRNKTEVDIYNSDPLICRAGLKVCFGIQLLNAVSRVERALPKLTVPFLLLQGSADRLCDSKGAYLLMELAKSQDKTLKIYEGAYHVLHKELPEVTNSVFHEINMWVSQRTATAGTASPP [MGLL]
Given back: -0.16

Asked: Another: MAYQSLRLEYLQIPPVSRAYTTACVLTTAAVQLELITPFQLYFNPELIFKHFQIWRLITNFLFFGPVGFNFLFNMIFLYRYCRMLEEGSFRGRTADFVFMFLFGGFLMTLFGLFVSLVFLGQAFTIMLVYVWSRRNPYVRMNFFGLLNFQAPFLPWVLMGFSLLLGNSIIVDLLGIAVGHIYFFLEDVFPNQPGGIRILKTPSILKAIFDTPDEDPNYNPLPEERPGGFAWGEGQRLGG [DERL2]
Given back: -0.0878

----------
- Tested on: HeLa Kyoto
- procedure_details: solubility in G1/S (NP-40 vs SDS abundance) (log2 ratio); higher = more soluble
- applied_conditions: cell cycle stage: G1/S
For each entry below, report its solubility in G1/S (log2) value.

Asked: Write down the reported solubility in G1/S (log2) of MLGFITRPPHRFLSLLCPGLRIPQLSVLCAQPRPRAMAISSSSCELPLVAVCQVTSTPDKQQNFKTCAELVREAARLGACLAFLPEAFDFIARDPAETLHLSEPLGGKLLEEYTQLARECGLWLSLGGFHERGQDWEQTQKIYNCHVLLNSKGAVVATYRKTHLCDVEIPGQGPMCESNSTMPGPSLESPVSTPAGKIGLAVCYDMRFPELSLALAQAGAEILTYPSAFGSITGPAHWEVLLRARAIETQCYVVAAAQCGRHHEKRASYGHSMVVDPWGTVVARCSEGPGLCLARIDLNYLRQLRRHLPVFQHRRPDLYGNLGHPLS [NIT1] , test system: HeLa Kyoto.
Given back: 0.248

Asked: Another: MSEKENNFPPLPKFIPVKPCFYQNFSDEIPVEHQVLVKRIYRLWMFYCATLGVNLIACLAWWIGGGSGTNFGLAFVWLLLFTPCGYVCWFRPVYKAFRADSSFNFMAFFFIFGAQFVLTVIQAIGFSGWGACGWLSAIGFFQYSPGAAVVMLLPAIMFSVSAAMMAIAIMKVHRIYRGAGGSFQKAQTEWNTGTWRNPPSREAQYNNFSGNSLPEYPTVPSYPGSGQWP [SCAMP4]
Given back: -0.117

Asked: Another: MFRFMRDVEPEDPMFLMDPFAIHRQHMSRMLSGGFGYSPFLSITDGNMPGTRPASRRMQQAGAVSPFGMLGMSGGFMDMFGMMNDMIGNMEHMTAGGNCQTFSSSTVISYSNTGDGAPKVYQETSEMRSAPGGIRETRRTVRDSDSGLEQMSIGHHIRDRAHILQRSRNHRTGDQEERQDYINLDESEAAAFDDEWRRETSRFRQQRPLEFRRLESSGAGGRRAEGPPRLAIQGPEDSPSRQSRRYDW [MLF2]
Given back: 0.236
